targetOrTestSystem: P. falciparum apicoplast DNA polymerase (Pf-apPOL) (Plasmodium falciparum)
Sequence (Q8ILY1 entry or part of it): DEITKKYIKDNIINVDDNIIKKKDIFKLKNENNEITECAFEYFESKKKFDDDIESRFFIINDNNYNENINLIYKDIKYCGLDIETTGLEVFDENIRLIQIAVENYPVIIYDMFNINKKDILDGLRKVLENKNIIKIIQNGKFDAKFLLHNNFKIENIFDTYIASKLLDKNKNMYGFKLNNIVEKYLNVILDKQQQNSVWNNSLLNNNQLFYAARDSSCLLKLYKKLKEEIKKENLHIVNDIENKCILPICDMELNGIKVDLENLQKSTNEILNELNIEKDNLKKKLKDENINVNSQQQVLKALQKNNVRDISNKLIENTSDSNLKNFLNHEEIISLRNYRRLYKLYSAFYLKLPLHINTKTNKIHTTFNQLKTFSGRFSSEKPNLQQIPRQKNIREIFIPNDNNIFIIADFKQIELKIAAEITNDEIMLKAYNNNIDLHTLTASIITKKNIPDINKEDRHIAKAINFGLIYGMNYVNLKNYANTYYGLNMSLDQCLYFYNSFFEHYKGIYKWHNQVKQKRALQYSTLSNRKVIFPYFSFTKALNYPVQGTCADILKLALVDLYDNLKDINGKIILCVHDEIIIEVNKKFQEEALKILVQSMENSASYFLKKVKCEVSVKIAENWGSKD
test: Fluorescence-based high-throughput DNA polymerase assay (molecular beacon), primary screen and dose-response;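 note: test concentration in µM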
Type: biochemical
measurementConditions: conc 10 (unit not given); 90'; DRC-2
measuredQuantity: % inhibition ApPOL 90' (%)

compound	targetOrTestSystem	observedMeasurement
O=[N+]([O-])c1cc2c(cc1CN1CCN(c3cccc(Cl)c3)CC1)OCO2 [KU0005610]	P. falciparum apicoplast DNA polymerase (Pf-apPOL) (Plasmodium falciparum)	11
CSCCC(C)(O)CNC(=O)C1CC1 (centres unmarked) [KU0200150]	P. falciparum apicoplast DNA polymerase (Pf-apPOL) (Plasmodium falciparum)	27
COc1ccccc1CCC(=O)N1CCc2c(nc3cc(-c4ccccc4)[nH]n3c2=O)C1 [Molecule 7]	P. falciparum apicoplast DNA polymerase (Pf-apPOL) (Plasmodium falciparum)	57
O=C(Nc1ncc([N+](=O)[O-])s1)c1ccc2c(c1)C(=O)N(N1C(=O)c3ccccc3C1=O)C2=O [KU0026378]	P. falciparum apicoplast DNA polymerase (Pf-apPOL) (Plasmodium falciparum)	26
CC1=NNC(=O)C1Oc1ccc(Cl)cc1Cl (centres unmarked) [KU0265591]	P. falciparum apicoplast DNA polymerase (Pf-apPOL) (Plasmodium falciparum)	9

Cited source for all entries: paper PMC9090415
